tested on: ECC4; assay: cells; format: functional, cell-based; conditions: Homo sapiens;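 further: growth inhibition of ECC4 cells, read out with a cell viability assay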
Description: SANGER: Inhibition of human ECC4 cell growth in a cell viability assay.
Measured IC50 by item
assay_metric: IC50

molecule	value_observed
CCC(=O)N1CCN(c2ccc(-n3c(=O)ccc4cnc5ccc(-c6cnc7ccccc7c6)cc5c43)cc2C(F)(F)F)CC1 [TORIN1]	1.19 µM
CC1=C2C[C@H]3[C@@H](CC=C4C[C@@H](O)CC[C@@]43C)[C@@H]2CC[C@]12O[C@@H]1C[C@H](C)CN[C@H]1[C@H]2C [CYCLOPAMINE]	> 16 µM
C=CCc1cccc(/C=N/NC(=O)CN2CCN(Cc3ccccc3)CC2)c1O [PAC-1]	> 2.56 µM
CCc1nc(N)nc(N)c1-c1ccc(Cl)cc1 [PYRIMETHAMINE]	> 20 µM
COc1cc([C@@H]2c3cc4c(cc3[C@@H](O[C@@H]3O[C@@H]5CO[C@@H](C)O[C@H]5[C@H](O)[C@H]3O)[C@H]3COC(=O)[C@H]23)OCO4)cc(OC)c1O [ETOPOSIDE]	> 16 µM
CO[C@H]1C[C@@H]2CC[C@@H](C)[C@@](O)(O2)C(=O)C(=O)N2CCCC[C@H]2C(=O)O[C@H]([C@H](C)C[C@@H]2CC[C@@H](O)[C@H](OC)C2)CC(=O)[C@H](C)/C=C(\C)[C@@H](O)[C@@H](OC)C(=O)[C@H](C)C[C@H](C)/C=C/C=C/C=C/1C [SIROLIMUS]	0.0448 µM

* * *

test system: NCI-H810; assay: cells; format: functional, cell-based, Homo sapiens; conditions: nci-h810
Description: SANGER: Inhibition of human NCI-H810 cell growth in a cell viability assay.
assay_metric: IC50

> print(dat)
                            compound.smiles  value.observed
1  Cc1cc([C@@H](C)Nc2ccccc2C(=O)O)c2nc(N3CCOCC3)cc(=O)n2c1       > 5.12 µM

* * *

Measured IC50 by item
test system: TCC-SUP; test: cells; format: functional, cell-based, Homo sapiens; settings: Homo sapiens, TCC-SUP
Description: SANGER: Inhibition of human TCCSUP cell growth in a cell viability assay.
assay_metric: IC50

> print(dat)
                                    molecule  value.observed
 1  CCOc1nc(NC(=O)Cc2cc(OC)ccc2OC)cc(N)c1C#N         > 10 µM
 2  Nc1ccn([C@@H]2O[C@H](CO)[C@@H](O)[C@@H]2O)c(=O)n1          > 2 µM
 3  Cc1ccc(Nc2nccc(N(C)c3ccc4c(C)n(C)nc4c3)n2)cc1S(N)(=O)=O          > 8 µM
 4  O=C(NOCC1CC1)c1ccc(F)c(F)c1Nc1ccc(I)cc1Cl         > 10 µM
 5  Cn1cc(C2=C(c3ccc(Cl)cc3Cl)C(=O)NC2=O)c2ccccc21         > 10 µM
 6  CN(C)C/C=C/C(=O)Nc1cc2c(Nc3ccc(F)c(Cl)c3)ncnc2cc1O[C@H]1CCOC1        > 0.5 µM
 7                     COC(=O)CNC(=O)C(=O)OC          432 µM
 8  COc1cc(F)c(F)c(Nc2ccc(I)cc2F)c1NS(=O)(=O)C1(CC(O)CO)CC1 (stereo not given)          > 5 µM
 9  O=C(c1cc(Cc2n[nH]c(=O)c3ccccc23)ccc1F)N1CCN(C(=O)C2CC2)CC1          > 5 µM
10  CN(Cc1cnc2nc(N)nc(N)c2n1)c1ccc(C(=O)N[C@@H](CCC(=O)O)C(=O)O)cc1 [METHOTREXATE]        > 0.2 µM

* * *

test system: ES6; assay: cells; assay type: functional, cell-based, Homo sapiens; settings: Homo sapiens, ES6
Description: SANGER: Inhibition of human ES6 cell growth in a cell viability assay.
pIC50: −log10 of the molar value.
assay_metric: pIC50

> print(dat)
                                   molecule  value.observed
1  Cc1cc(Nc2cc(N3CCN(C)CC3)nc(Sc3ccc(NC(=O)C4CC4)cc3)n2)n[nH]1 [TOZASERTIB]          < 5.70
2  CC1=C2C[C@H]3[C@@H](CC=C4C[C@@H](O)CC[C@@]43C)[C@@H]2CC[C@]12O[C@@H]1C[C@H](C)CN[C@H]1[C@H]2C [CYCLOPAMINE]          < 4.80
3  O=C(/C=C/c1ccccc1)NC(NC(=S)Nc1cccc2cccnc12)C(Cl)(Cl)Cl (centres undefined) [SALUBRINAL]          < 4.80
4                     COC(=O)CNC(=O)C(=O)OC            2.45

* * *

test system: NEC8; test: cells; format: functional, cell-based, Homo sapiens; conditions: Homo sapiens, NEC8;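 further: growth inhibition of human NEC8 cells, read out by a cell viability assay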
Description: SANGER: Inhibition of human NEC8 cell growth in a cell viability assay.
Measured IC50 by item
assay_metric: IC50

molecule	assay_metric	value_observed
CC1=C2C[C@H]3[C@@H](CC=C4C[C@@H](O)CC[C@@]43C)[C@@H]2CC[C@]12O[C@@H]1C[C@H](C)CN[C@H]1[C@H]2C [CYCLOPAMINE]	IC50	> 16 µM
CO[C@H]1C[C@@H]2CC[C@@H](C)[C@@](O)(O2)C(=O)C(=O)N2CCCC[C@H]2C(=O)O[C@H]([C@H](C)C[C@@H]2CC[C@@H](O)[C@H](OC)C2)CC(=O)[C@H](C)/C=C(\C)[C@@H](O)[C@@H](OC)C(=O)[C@H](C)C[C@H](C)/C=C/C=C/C=C/1C [SIROLIMUS]	IC50	> 0.1 µM
C=C1C(=O)O[C@@H]2C3O[C@]3(C)CC/C=C(\C)CC[C@@H]12 (stereo partly specified)	IC50	> 5 µM
CNC(=O)c1cc(Oc2ccc(NC(=O)Nc3ccc(Cl)c(C(F)(F)F)c3)cc2)ccn1 [SORAFENIB]	IC50	> 4 µM
CN(c1ncccc1CNc1nc(Nc2ccc3c(c2)CC(=O)N3)ncc1C(F)(F)F)S(C)(=O)=O [PF-00562271]	IC50	> 2.56 µM
O=c1cc(-c2cccc3c2Sc2ccccc2S3)oc(N2CCOCC2)c1 [KU-55933]	IC50	> 10 µM

* * *

Measured IC50 by item
tested on: LB831-BLC; test: cells; type: functional, cell-based, Homo sapiens; settings: Homo sapiens, LB831-BLC
Description: SANGER: Inhibition of human LB831-BLC cell growth in a cell viability assay.
assay_metric: IC50

> print(dat)
                                   compound  study.system  assay.metric  value.observed
1  Cc1ccc(Nc2nccc(N(C)c3ccc4c(C)n(C)nc4c3)n2)cc1S(N)(=O)=O     LB831-BLC          IC50         2550 nM
2  CC(=O)O[C@@H]1[C@@H](OC(C)=O)[C@@H](O)[C@H](Oc2c(-c3ccc(O)cc3)oc3cc(O)cc(O)c3c2=O)O[C@H]1C     LB831-BLC          IC50      > 10000 nM
3  CS(=O)(=O)CCNCc1ccc(-c2ccc3ncnc(Nc4ccc(OCc5cccc(F)c5)c(Cl)c4)c3c2)o1     LB831-BLC          IC50       > 2000 nM
4  CN1CCN(CCOc2cc(OC3CCOCC3)c3c(Nc4c(Cl)ccc5c4OCO5)ncnc3c2)CC1     LB831-BLC          IC50       > 2000 nM
5  O=C(NOCC1CC1)c1ccc(F)c(F)c1Nc1ccc(I)cc1Cl     LB831-BLC          IC50      > 10000 nM
6  CN(Cc1cnc2nc(N)nc(N)c2n1)c1ccc(C(=O)N[C@@H](CCC(=O)O)C(=O)O)cc1 [METHOTREXATE]     LB831-BLC          IC50        > 200 nM

* * *

test system: NCI-H1792; assay: cells; assay type: functional, cell-based, Homo sapiens; details: Homo sapiens, NCI-H1792;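 further: growth inhibition of human NCI-H1792 cells, read out as cell viability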
Description: SANGER: Inhibition of human NCI-H1792 cell growth in a cell viability assay.
Measured IC50 by item
assay_metric: IC50

molecule	study_system	value_observed
CCC1=C[C@@H]2CN(C1)Cc1c([nH]c3ccccc13)[C@@](C(=O)OC)(c1cc3c(cc1OC)N(C)[C@H]1[C@@](O)(C(=O)OC)[C@H](OC(C)=O)[C@]4(CC)C=CCN5CC[C@]31[C@@H]54)C2 [VINORELBINE]	NCI-H1792	> 64 nM
C=CCNC1=C2C[C@@H](C)C[C@H](OC)[C@H](O)[C@@H](C)/C=C(\C)[C@H](OC(N)=O)[C@@H](OC)/C=C\C=C(/C)C(=O)NC(=CC1=O)C2=O [TANESPIMYCIN]	NCI-H1792	96.2 nM
COc1ccc(C2=N[C@@H](c3ccc(Cl)cc3)[C@@H](c3ccc(Cl)cc3)N2C(=O)N2CCNC(=O)C2)c(OC(C)C)c1 [NUTLIN-3]	NCI-H1792	> 8000 nM

* * *

Measured IC50 by item
tested on: TE-1; experiment: cells; type: functional, cell-based, Homo sapiens; conditions: Homo sapiens, TE-1
Description: SANGER: Inhibition of human TE-1 cell growth in a cell viability assay.

compound	limit_operator	IC50, nM
CN(Cc1cnc2nc(N)nc(N)c2n1)c1ccc(C(=O)N[C@@H](CCC(=O)O)C(=O)O)cc1 [METHOTREXATE]	>	200
CN1CCN(CCOc2cc(OC3CCOCC3)c3c(Nc4c(Cl)ccc5c4OCO5)ncnc3c2)CC1	=	1440
CCC1=C[C@@H]2CN(C1)Cc1c([nH]c3ccccc13)[C@@](C(=O)OC)(c1cc3c(cc1OC)N(C)[C@H]1[C@@](O)(C(=O)OC)[C@H](OC(C)=O)[C@]4(CC)C=CCN5CC[C@]31[C@@H]54)C2	=	13.1
O=C(/C=C/c1ccccc1)NC(NC(=S)Nc1cccc2cccnc12)C(Cl)(Cl)Cl (stereo not given)	>	16000
COc1ccc(C2=N[C@@H](c3ccc(Cl)cc3)[C@@H](c3ccc(Cl)cc3)N2C(=O)N2CCNC(=O)C2)c(OC(C)C)c1	>	8000
